- study_system: Protein kinase C gamma type (Homo sapiens) (UniProt P05129)
- method_notes: Inhibition of Protein kinase C gamma type at 10 uM by luciferase assay
Calls of active or inactive are those of the source. The rule behind the calls is not given here.
result_type: inhibition

{"given_smiles": "O=C1NC(=O)c2c1c1c3ccccc3[nH]c1c1[nH]c3ccccc3c21", "study_system": "Protein kinase C gamma type (Homo sapiens) (UniProt P05129)", "result_type": "inhibition", "observed_value": "inactive"}
{"given_smiles": "Cn1cc(C2=C(c3cn(CCCSC(=N)N)c4ccccc34)C(=O)NC2=O)c2ccccc21", "study_system": "Protein kinase C gamma type (Homo sapiens) (UniProt P05129)", "result_type": "inhibition", "observed_value": "47%"}
{"given_smiles": "O=C1NC(=O)c2cc(Nc3ccc(F)cc3)c(Nc3ccc(F)cc3)cc21", "study_system": "Protein kinase C gamma type (Homo sapiens) (UniProt P05129)", "result_type": "inhibition", "observed_value": "22%"}
{"given_smiles": "CN(C)CCCn1cc(C2=C(c3c[nH]c4ccccc34)C(=O)NC2=O)c2ccccc21", "study_system": "Protein kinase C gamma type (Homo sapiens) (UniProt P05129)", "result_type": "inhibition", "observed_value": "inactive"}

* * *

- method_notes: Inhibition of Protein kinase A at 10 uM by luciferase assay
Catalogue of molecules with associated inhibition

{"given_smiles": "CC(C)(C)n1nc(-c2ccc(Cl)cc2)c2c(N)ncnc21", "inhibition": "19%"}
{"given_smiles": "Cc1ccc(-c2nn(C(C)(C)C)c3ncnc(N)c23)cc1", "inhibition": "19%"}
{"given_smiles": "O=S(=O)(NCCNC/C=C/c1ccc(Br)cc1)c1cccc2cnccc12", "inhibition": "> 65%"}

* * *

- study_system: cAMP-dependent protein kinase catalytic subunit PRKX (Homo sapiens) (UniProt P51817)
- Sequence (P51817 whole entry): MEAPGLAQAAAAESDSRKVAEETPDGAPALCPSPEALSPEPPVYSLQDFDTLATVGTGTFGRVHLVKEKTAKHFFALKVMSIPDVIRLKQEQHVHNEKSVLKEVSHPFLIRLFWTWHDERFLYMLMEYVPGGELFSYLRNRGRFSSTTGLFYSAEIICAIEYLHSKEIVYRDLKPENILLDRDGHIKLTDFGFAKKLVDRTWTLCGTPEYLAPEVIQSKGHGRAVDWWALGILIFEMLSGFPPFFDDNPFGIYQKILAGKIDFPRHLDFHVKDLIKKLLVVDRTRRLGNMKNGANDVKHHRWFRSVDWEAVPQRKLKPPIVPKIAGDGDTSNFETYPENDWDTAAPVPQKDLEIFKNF
- method_notes: Inhibition of PRKX at 10 uM by luciferase assay
Active and inactive are the calls of the source. No cut-off for these calls is given here.
result_type: inhibition

{"given_smiles": "C[C@@H](N)[C@H]1CC[C@H](C(=O)Nc2ccncc2)CC1", "result_type": "inhibition", "observed_value": "Active"}
{"given_smiles": "O=C(c1ccc(Nc2nccc(-c3cc4ccccc4s3)n2)cc1)N1CCC(N2CCCC2)CC1", "result_type": "inhibition", "observed_value": "> 29%"}
{"given_smiles": "O=S(=O)(c1cccc2c(O)nccc12)N1CCCNCC1", "result_type": "inhibition", "observed_value": "Active"}
{"given_smiles": "O=S(=O)(NCCNC/C=C/c1ccc(Br)cc1)c1cccc2cnccc12", "result_type": "inhibition", "observed_value": "> 65%"}
{"given_smiles": "O=S(=O)(c1cccc2cnccc12)N1CCCNCC1", "result_type": "inhibition", "observed_value": "Active"}

* * *

Catalogue of compounds with associated inhibition
- study_system: Aurora kinase C (Homo sapiens) (UniProt Q9UQB9)
- Sequence (whole entry): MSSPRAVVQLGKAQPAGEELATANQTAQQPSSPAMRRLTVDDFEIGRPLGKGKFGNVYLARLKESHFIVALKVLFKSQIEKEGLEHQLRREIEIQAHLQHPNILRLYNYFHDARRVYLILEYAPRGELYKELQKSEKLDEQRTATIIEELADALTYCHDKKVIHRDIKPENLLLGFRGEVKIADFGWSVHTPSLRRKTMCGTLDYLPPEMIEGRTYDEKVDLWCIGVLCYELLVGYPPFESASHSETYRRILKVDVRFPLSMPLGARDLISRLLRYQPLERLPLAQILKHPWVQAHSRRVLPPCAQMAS
- method_notes: Inhibition of Aurora kinase C at 10 uM by luciferase assay

{"given_smiles": "COc1cc2ncn(-c3cc(OCc4ccccc4C(F)(F)F)c(C(N)=O)s3)c2cc1OC", "inhibition": "> 25%"}
{"given_smiles": "Cc1[nH]c(/C=C2\\C(=O)Nc3ccc(S(=O)(=O)Cc4c(Cl)cccc4Cl)cc32)c(C)c1C(=O)N1CCC[C@@H]1CN1CCCC1", "inhibition": "> 25%"}
{"given_smiles": "NC(=O)Nc1sc(-c2ccc(F)cc2)cc1C(N)=O", "inhibition": "> 25%"}
{"given_smiles": "COc1cc2c(Nc3ccc(NC(=O)c4ccccc4)cc3)ncnc2cc1OCCCN1CCOCC1", "inhibition": "> 50%"}
